- Measurement description: PK studies in rats
- Format: in vivo, SD rats
- Run conditions: male, Sprague-Dawley, rat, plasma, iv; I.V, 5 mg/kg, SD rats, n = 3
Quantity name: half-life (h)

| Molecule | Endpoint unit | half-life |
| --- | --- | --- |
| COc1cc(Br)cc(OC)c1-c1c(C)nn2c(N(CCCC(F)(F)F)CCCC(F)(F)F)nc(C)nc12 | h | 4.76 |

a: CCCCN(CC1CC1)c1nc(C)nc2c(-c3c(OC)cc(Br)cc3OC)c(C)nn12
b: CCCCN(CC)c1nc(C)nc2c1c(C)c(C)n2-c1c(C)cc(C)cc1C [Antalarmin, reference compound]
Q: For the pair a and b , which entry has the numerically smaller recorded half-life? Lab note: record the label of whichever item you select.
A: b

---

- Test system: CRF1R (Homo sapiens)
- Construct: HEK-Gα15 cells (Eurofins Scientific) transfected with CRF1R
- Sequence (P34998 24-415): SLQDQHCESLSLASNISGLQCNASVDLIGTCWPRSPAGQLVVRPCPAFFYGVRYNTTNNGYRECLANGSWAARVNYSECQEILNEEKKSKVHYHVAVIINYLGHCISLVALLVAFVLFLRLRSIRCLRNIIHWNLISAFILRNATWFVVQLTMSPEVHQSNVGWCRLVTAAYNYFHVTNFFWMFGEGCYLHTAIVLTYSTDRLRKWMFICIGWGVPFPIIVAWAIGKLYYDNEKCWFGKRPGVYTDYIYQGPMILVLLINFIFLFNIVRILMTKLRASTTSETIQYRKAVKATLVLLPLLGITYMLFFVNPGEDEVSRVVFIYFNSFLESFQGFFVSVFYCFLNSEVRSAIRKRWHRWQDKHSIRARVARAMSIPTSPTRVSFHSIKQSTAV
- Measurement description: Calcium mobilization assay (hCRF1R Ca2+ antagonism)
- Run conditions: HEK-Gα15 cells transfected with CRF1R, urocortin 2 nM, n = 3
Quantity name: IC50 (nM)

1: COc1cc(Br)cc(OC)c1-c1c(C)nn2c(N(CCCC(F)(F)F)CCCC(F)(F)F)nc(C)nc12 [BMK-C203]
2: COCCN(CCOC)c1nc(C)nc2c(-c3c(OC)cc(Br)cc3OC)c(C)nn12 [BMK-I-152]
3: CCCCN(CC1CC1)c1nc(C)nc2c(-c3c(OC)cc(Br)cc3OC)c(C)nn12 [BMK-C205]
Q: // rank above by IC50: first = highest number Give the labels in the order specified.
A: 1, 3, 2

---

- Measurement description: In vitro BBB permeability assay
- Format: in vitro ADME, human
- Run conditions: human; 10 μM apical, 12-h incubation, hCMEC/D3 monolayer; read-out: permeability coefficient
Quantity name: Papp at 12 h, 10 µM (×10⁻⁶ cm/s)

1: CCCCN(CC1CC1)c1nc(C)nc2c(-c3c(OC)cc(Br)cc3OC)c(C)nn12
2: COc1cc(Br)cc(OC)c1-c1c(C)nn2c(N(CCCC(F)(F)F)CCCC(F)(F)F)nc(C)nc12
Q: For the two items 1 and 2 , which reports the higher Papp at 12 h, 10 µM value? Lab note: record the label of whichever item you select.
A: 1

---

- Measurement description: PK studies in rats
- Assay type: in vivo, SD rats
- Run conditions: male, Sprague-Dawley, rat, plasma, po; P.O, 10 mg/kg, SD rats, n = 3
Quantity name: half-life (h)

| Compound | Endpoint unit | half-life |
| --- | --- | --- |
| CCCCN(CC1CC1)c1nc(C)nc2c(-c3c(OC)cc(Br)cc3OC)c(C)nn12 | h | 3.87 |
| COCCN(CCOC)c1nc(C)nc2c(-c3c(OC)cc(Br)cc3OC)c(C)nn12 | h | 5.66 |
| COc1cc(Br)cc(OC)c1-c1c(C)nn2c(N(CCCC(F)(F)F)CCCC(F)(F)F)nc(C)nc12 | h | 4.22 |
| CCCCN(CC)c1nc(C)nc2c1c(C)c(C)n2-c1c(C)cc(C)cc1C [Antalarmin, reference compound] | h | 4.08 |

---

- Measurement description: PK studies in rats
- Assay type: in vivo, SD rats
- Run conditions: male, Sprague-Dawley, rat, plasma, iv; I.V, 1 mg/kg, SD rats, n = 3
Quantity name: half-life (h)
# value in h; strip the unit string

Q: What value of half-life has been recorded for this entry: "COCCN(CCOC)c1nc(C)nc2c(-c3c(OC)cc(Br)cc3OC)c(C)nn12"
A: 13.5

---

- Measurement description: PK studies in rats
- Format: in vivo, SD rats
- Run conditions: male, Sprague-Dawley, rat, plasma, po; P.O, 10 mg/kg, SD rats, n = 3
Quantity name: bioavailability (%)

| Molecule | bioavailability [%] |
| --- | --- |
| CCCCN(CC)c1nc(C)nc2c1c(C)c(C)n2-c1c(C)cc(C)cc1C [Antalarmin, reference compound] | 7.6 |
| COCCN(CCOC)c1nc(C)nc2c(-c3c(OC)cc(Br)cc3OC)c(C)nn12 | 33.8 |

A: COc1cc(Br)cc(OC)c1-c1c(C)nn2c(N(CCCC(F)(F)F)CCCC(F)(F)F)nc(C)nc12
B: CCCCN(CC1CC1)c1nc(C)nc2c(-c3c(OC)cc(Br)cc3OC)c(C)nn12
Q: For the two items A and B , which reports the higher bioavailability value? Lab note: record the label of whichever item you select.
A: A

---

- Measurement description: PK studies in rats
- Format: in vivo, SD rats
- Run conditions: male, Sprague-Dawley, rat, plasma, po; P.O, 10 mg/kg, SD rats, n = 3
Quantity name: AUC(0-t) (ng·h/mL)

a: CCCCN(CC)c1nc(C)nc2c1c(C)c(C)n2-c1c(C)cc(C)cc1C [Antalarmin, reference compound]
b: COc1cc(Br)cc(OC)c1-c1c(C)nn2c(N(CCCC(F)(F)F)CCCC(F)(F)F)nc(C)nc12 [BMK-C203]
c: CCCCN(CC1CC1)c1nc(C)nc2c(-c3c(OC)cc(Br)cc3OC)c(C)nn12 [BMK-C205]
d: COCCN(CCOC)c1nc(C)nc2c(-c3c(OC)cc(Br)cc3OC)c(C)nn12 [BMK-I-152]
Q: With regard to AUC(0-t), arrange the entries in ascending order, please. Give the labels in the order specified.
A: a, d, c, b

---

- Measurement description: PK studies in rats
- Format: in vivo, SD rats
- Run conditions: male, Sprague-Dawley, rat, plasma, po; P.O, 10 mg/kg, SD rats, n = 3
Quantity name: Cmax (ng/mL)

| Molecule | Endpoint unit | Cmax |
| --- | --- | --- |
| CCCCN(CC)c1nc(C)nc2c1c(C)c(C)n2-c1c(C)cc(C)cc1C [Antalarmin, reference compound] | ng/mL | 146 |
| COCCN(CCOC)c1nc(C)nc2c(-c3c(OC)cc(Br)cc3OC)c(C)nn12 | ng/mL | 267 |

1: COc1cc(Br)cc(OC)c1-c1c(C)nn2c(N(CCCC(F)(F)F)CCCC(F)(F)F)nc(C)nc12
2: CCCCN(CC1CC1)c1nc(C)nc2c(-c3c(OC)cc(Br)cc3OC)c(C)nn12
Q: For the two items 1 and 2 , which reports the higher Cmax value? Lab note: record the label of whichever item you select.
A: 2

---

- Measurement description: PK studies in rats
- Assay type: in vivo, SD rats
- Run conditions: male, Sprague-Dawley, rat, plasma, po; P.O, 10 mg/kg, SD rats, n = 3
Quantity name: Tmax (h)

Sample answers from the record:
| Compound | Endpoint unit | Tmax |
| --- | --- | --- |
| COCCN(CCOC)c1nc(C)nc2c(-c3c(OC)cc(Br)cc3OC)c(C)nn12 [BMK-I-152] | h | 6.67 |
| CCCCN(CC)c1nc(C)nc2c1c(C)c(C)n2-c1c(C)cc(C)cc1C [Antalarmin, reference compound] | h | 4 |

P: COc1cc(Br)cc(OC)c1-c1c(C)nn2c(N(CCCC(F)(F)F)CCCC(F)(F)F)nc(C)nc12 [BMK-C203]
Q: CCCCN(CC1CC1)c1nc(C)nc2c(-c3c(OC)cc(Br)cc3OC)c(C)nn12 [BMK-C205]
Q: For the two items P and Q , which reports the higher Tmax value? Lab note: record the label of whichever item you select.
A: P
(P: 4.67 h, Q: 2 h)
